Where these numbers come from: patent US20250270314A1

Biological target: T1, human CDH17 on AGS gastric cancer cells and AsPC-1 pancreatic cancer cells (human, UniProt Q12864 23-832)
T1 construct: Native CDH17 on the surface of cancer cell lines; also called CDH17 expressing AGS cells; CDH17 expressing AsPC-1 pancreatic cancer cells
T1 sequence: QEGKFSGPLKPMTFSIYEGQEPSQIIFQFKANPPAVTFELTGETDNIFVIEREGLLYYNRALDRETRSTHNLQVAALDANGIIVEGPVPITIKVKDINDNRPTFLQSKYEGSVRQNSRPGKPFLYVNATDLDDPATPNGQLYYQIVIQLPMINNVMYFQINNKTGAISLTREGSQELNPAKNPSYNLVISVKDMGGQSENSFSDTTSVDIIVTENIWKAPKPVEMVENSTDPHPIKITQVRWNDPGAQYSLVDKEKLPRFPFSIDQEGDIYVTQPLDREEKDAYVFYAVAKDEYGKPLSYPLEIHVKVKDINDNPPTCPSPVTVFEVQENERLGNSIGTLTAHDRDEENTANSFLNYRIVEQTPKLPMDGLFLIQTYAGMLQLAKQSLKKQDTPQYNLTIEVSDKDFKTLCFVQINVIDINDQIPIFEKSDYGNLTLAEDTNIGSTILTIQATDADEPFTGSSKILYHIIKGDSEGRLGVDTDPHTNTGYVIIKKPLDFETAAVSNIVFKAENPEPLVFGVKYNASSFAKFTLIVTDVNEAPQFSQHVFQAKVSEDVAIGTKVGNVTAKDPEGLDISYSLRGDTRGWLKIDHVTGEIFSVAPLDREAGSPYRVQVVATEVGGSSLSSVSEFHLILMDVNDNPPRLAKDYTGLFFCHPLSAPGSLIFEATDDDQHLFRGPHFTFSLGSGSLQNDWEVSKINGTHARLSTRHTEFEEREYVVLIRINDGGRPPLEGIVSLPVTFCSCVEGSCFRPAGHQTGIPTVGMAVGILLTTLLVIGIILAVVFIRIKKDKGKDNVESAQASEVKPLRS
Assay: flow cytometry on AGS and AsPC-1 cells
assay.readout: binding result

Q) Requested field: binding result. Item: VHO v364 (VHH, Variable-heavy-only (VHO) single domain; also called TS00364; CDH17-VHO364) VHH: EVQLLESGGGLVQPGGSLRLSCAASGFTFSDYWMSWVRQAPGKGLEWVSNISGSGGSTYYADSVKGRFTISRDNSKNTLYLQMNSLRAEDTAVYYCAKTSDWLLHDADLHFDYWGQGTLVTVSS
A) binds

Q) Requested field: binding result. Item: VHO v341 (VHH, Variable-heavy-only (VHO) single domain; also called TS00341) VHH: EVQLLESGGGLVQPGGSLRLSCAASGFTFSTYWMSWVRQAPGKGLEWVSVINQDGSSTYYADSVKGRFTISRDNSKNTLYLQMNSLRAEDTAVYYCAKDELKSEWDFDYWGQGTLVTVSS
A) binds
